Molecular target: human Farnesoid X receptor ligand-binding domain/Gal4 DNA binding domain chimera (Homo sapiens (Human))
Sequence (Q96RI1 262-486, change not shown): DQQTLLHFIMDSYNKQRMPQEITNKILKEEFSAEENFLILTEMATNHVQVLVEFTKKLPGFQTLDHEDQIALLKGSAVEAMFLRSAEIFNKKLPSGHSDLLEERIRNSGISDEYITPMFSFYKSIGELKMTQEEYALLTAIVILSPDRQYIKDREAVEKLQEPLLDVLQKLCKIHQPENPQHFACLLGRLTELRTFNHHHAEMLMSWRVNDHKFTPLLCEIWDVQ
Sequence (P04386 1-147 partner): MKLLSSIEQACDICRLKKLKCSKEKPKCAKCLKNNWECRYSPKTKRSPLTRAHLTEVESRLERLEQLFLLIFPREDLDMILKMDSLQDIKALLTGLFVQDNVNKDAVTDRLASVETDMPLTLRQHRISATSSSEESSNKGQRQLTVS
Experiment: Cell-based assay of FXR activation (FXR-UAS-bla HEK 293T beta-lactamase reporter)
Settings: HEK-293T; extent of activation relative to GW4064; cellular FXR beta-lactamase reporter assay; read-out: % Efficacy
Below: a set of entries, each annotated with reported Emax.

molecule | Emax [%]
O=C(NS(=O)(=O)CC1CCOCC1)c1ccc(N2C(=O)[C@@H]3C[C@H]2C[C@H]3OCc2c(-c3c(Cl)cccc3Cl)noc2C2CC2)cc1F [Compound I-333] | 112
O=C(NS(=O)(=O)C1CC1)c1ccc(N2C[C@@H]3C[C@H]2C[C@H]3OCc2c(-c3c(Cl)cccc3Cl)noc2C2CC2)c(F)c1 [Compound I-62] | 112
CN1CCC(S(=O)(=O)NC(=O)c2ccc(N3C[C@@H]4C[C@H]3C[C@H]4OCc3c(-c4c(Cl)cccc4Cl)noc3C3CC3)cc2)CC1 [Compound I-187] | 104
CS(=O)(=O)NC(=O)c1ccc(N2C[C@@H]3C[C@H]2C[C@H]3OCc2c(-c3c(Cl)cccc3Cl)noc2C2CC2)cc1 [Compound I-58] | 104
CCCS(=O)(=O)NC(=O)c1ccc(N2C[C@@H]3C[C@H]2C[C@H]3OCc2c(-c3c(Cl)cccc3Cl)noc2C2(F)CC2)c(F)c1 [Compound I-198] | 112
O=C(CCc1ccc(N2C[C@@H]3C[C@H]2C[C@H]3OCc2c(-c3c(Cl)cccc3Cl)noc2C2CC2)c(F)c1)OCCN(CCO)CCO [Compound I-163] | 99
O=C(O)c1cc(F)c2nc(N3C[C@H]4C[C@@H]3C[C@@H]4OC(=O)c3c(-c4c(Cl)cccc4Cl)noc3C3CC3)sc2c1 [Compound I-38] | 96
O=C(O)c1cc(C2CC2)c2nc(N3C(=O)[C@@H]4C[C@H]3C[C@H]4OCc3c(-c4c(Cl)cccc4Cl)noc3C3CC3)sc2c1 [Compound I-295] | 105
O=C(O)c1cc(C2CCOCC2)c2nc(N3C(=O)[C@@H]4C[C@H]3C[C@H]4OCc3c(-c4c(Cl)cccc4Cl)noc3C3CC3)sc2c1 [Compound I-298] | 112
O=C(NS(=O)(=O)CC1CCOC1)c1ccc(N2C[C@@H]3C[C@H]2C[C@H]3OCc2c(-c3c(Cl)cccc3Cl)noc2C2CC2)cc1 (stereo partly drawn) [Compound I-186] | 107
O=C(NS(=O)(=O)C1CCOC1)c1ccc(N2C(=O)[C@@H]3C[C@H]2C[C@H]3OCc2c(-c3c(Cl)cccc3Cl)noc2C2CC2)cc1 (stereo partly drawn) [Compound I-340] | 110
COC(=O)c1cc(F)c2nc(N3C[C@@H]4C[C@H]3C[C@@H]4OCc3c(-c4c(Cl)cccc4Cl)noc3C3CC3)sc2c1 [Compound I-36] | 50

* * *

Biological target: human Farnesoid X receptor ligand-binding domain/Gal4 DNA binding domain chimera (Homo sapiens (Human))
Assay: Cell-based assay of FXR activation (FXR-UAS-bla HEK 293T beta-lactamase reporter)
Details: cellular FXR beta-lactamase reporter assay, FXR-UAS-bla HEK 293T cells, 16 h; pEC50 = -log EC50

compound | units label | EC50
CCc1cc(C(=O)O)cc2sc(N3C(=O)[C@@H]4C[C@H]3C[C@H]4OCc3c(-c4c(Cl)cccc4Cl)noc3C3CC3)nc12 | nM | 2.51
O=C(O)c1cc(F)c2nc(N3C[C@@H]4C[C@H]3C[C@@H]4OC(=O)c3c(-c4c(Cl)cccc4Cl)noc3C3CC3)sc2c1 | nM | 398
O=C(O)c1cc(F)c2nc(N3C[C@H]4C[C@@H]3[C@H](OCc3c(-c5c(Cl)cccc5Cl)noc3C3CC3)C4)sc2c1 | nM | 100
Cc1cc(C(=O)NCCP(=O)(OCOC(=O)C(C)(C)C)OCOC(=O)C(C)(C)C)ccc1N1C[C@@H]2C[C@H]1C[C@H]2OCc1c(-c2c(Cl)cccc2Cl)noc1C1CC1 | nM | 251
Cc1cccc(Cl)c1-c1noc(C2CC2)c1CO[C@@H]1C[C@@H]2C[C@H]1CN2c1nc2c([C@H]3CCOC3)cc(C(=O)O)cc2s1 | nM | 0.501
O=C(NS(=O)(=O)CC1CCOC1)c1ccc(N2C[C@@H]3C[C@H]2C[C@H]3OCc2c(-c3c(Cl)cccc3Cl)noc2C2CC2)cc1 (stereo partly drawn) | nM | 0.158
COc1ccccc1-c1noc(C2CC2)c1CO[C@@H]1C[C@@H]2C[C@H]1CN2c1nc2c(F)cc(C(=O)O)cc2s1 | nM | 3.98
O=C(O)c1cc(C2CCOCC2)c2nc(N3C[C@@H]4C[C@H]3C[C@H]4OCc3c(C4CCC5(CC4)CC5)noc3C3CC3)sc2c1 | nM | 39.8
CCCS(=O)(=O)NC(=O)c1ccc(N2C[C@@H]3C[C@H]2C[C@H]3OCc2c(-c3c(Cl)cccc3Cl)noc2C2CC2)c(F)c1 | nM | 0.0631
O=C(NS(=O)(=O)C1CCCCC1)c1ccc(N2C[C@@H]3C[C@H]2C[C@H]3OCc2c(-c3c(Cl)cccc3Cl)noc2C2CC2)cc1 | nM | 0.0631
Cc1cccc(Cl)c1-c1noc(C2CC2)c1CO[C@@H]1C[C@@H]2C[C@H]1CN2c1nc2c(O[C@@H]3CCOC3)cc(C(=O)O)cc2s1 | nM | 0.631
CC1(C)CC(S(=O)(=O)NC(=O)c2ccc(N3C(=O)[C@@H]4C[C@H]3C[C@H]4OCc3c(-c4c(Cl)cccc4Cl)noc3C3CC3)cc2F)CCO1 (stereo partly drawn) | nM | 0.158
